The measurements presented in this section are drawn from PubChem BioAssay (NCI).

Tested on: HOP-62 NSCLC
Assay: NCI tumour cell line growth inhibition, 48 h

| Compound | TGI |
| --- | --- |
| N=C(N)n1[nH]c2c(c1=O)CCC2 | > 100 µM |
| Oc1[nH]c2ccccc2c1N=NC(=S)N1CCCCCC1 | 4.09 µM |
| O=C1C[C@H](c2ccccc2)C2(C(=O)c3ccccc3C2=O)[C@@H](c2ccccc2)C1 | > 100 µM |
| CC1(C)CCc2cc3c(cc2O1)OC(C)(C)C1c2c(ccc4c2CCC(C)(C)O4)OC31 (stereo not given) | > 100 µM |
| c1ccc(-c2n(Cc3ccc4ccccc4n3)c3ccccc3[n+]2Cc2ccc3ccccc3n2)cc1 | 1.95 µM |
| COc1cc(C2c3cc4c(cc3C3OC(=O)C2C3CO)OCO4)cc(OC)c1OC (stereo not given) | > 100 µM |
| CCCNC(=O)c1cc2ccccc2cc1C(=O)OC | > 100 µM |
| CC(C)C(/C=C/c1ccccc1)=N\NC(=O)N/N=C(/C=C/c1ccccc1)C(C)C | > 100 µM |
| O=C(c1ccc(Cl)cc1)N(Cc1cccnc1)C(=S)N(Cc1cccnc1)C(=O)c1ccc(Cl)cc1 | > 100 µM |
| CCCCCCC(CCl)c1sc(-c2csc(CCNC(=O)OC(C)(C)C)n2)nc1C(=O)OC (stereo not given) | > 100 µM |

---

Test system: HT29 colon
Assay: NCI tumour cell line growth inhibition, 48 h; in the data active = GI50 below about 0.43 µM; inactive = the rest
Outcomes: active, inactive

| Compound Smiles | Group |
| --- | --- |
| CC(C)(C)c1ccc(C(=O)N/N=C/c2ccc(O)cc2O)cc1 | inactive |
| c1ccc(-c2n(Cc3ccc4ccccc4n3)c3ccccc3[n+]2Cc2ccc3ccccc3n2)cc1 | active |
| C/C1=C\CC[C@@](C)(O)[C@H]2C[C@H](CC/C(C)=C/CC1)C1(CC1)C(=O)O2 | inactive |
| COC(=O)c1[nH]nc(-c2ccccc2)c1N1CCCCC1 | inactive |
| COc1cc(Nc2ncc3c(n2)-c2ccc(Cl)cc2C(c2c(F)cccc2OC)=NC3)ccc1C(=O)O | inactive |
| O=C(Cc1ccc(/C=C/C(=O)c2ncc[nH]2)cc1)Nc1ccc(Br)cc1 | inactive |
| Cc1sc2nc(-c3ccccn3)c(/C=N/N=C(N)N)n2c1C | inactive |
| Cc1cc(N(CCCNc2ccnc3cc(Cl)ccc23)Cc2cccs2)nc(Cl)n1 | inactive |
| Nc1c(C(=O)Nc2cccc3ccccc23)sc2nc3c(cc12)CCCC3 | inactive |
| CC(=O)OCCC/C(=C\c1ccc2ccccc2c1)[N+](=O)[O-] | inactive |
| C[C@@H]1CN(Cc2ccc(/C=C/c3n[nH]c4ccc5nc(-c6cn[nH]c6C(F)(F)F)c6c(c5c34)CCCC6)cc2)C[C@H](C)O1 | inactive |

---

Listing: TGI of selected compounds
Tested on: UO-31 renal
Experiment: NCI tumour cell line growth inhibition, 48 h

| Compound | TGI |
| --- | --- |
| O=C1OCC2=C1C(c1cccc(F)c1)c1cc3c(cc1N2CCO)OCCO3 (stereo unspecified) | > 50 µM |
| ClCc1c(-c2ccccc2)nn(-c2ccccc2)c1CCl | 45 µM |
| CC(=O)O[C@H]1CC[C@@]2(C)C(=CC[C@@H]3[C@@H]2CC[C@]2(C)c4nc(N)c(C#N)cc4C[C@@H]32)C1 | > 100 µM |
| COc1cc2c(c3oc(-c4ccc5c(c4)OCO5)c(O)c(=O)c13)CCC(C)(C)O2 | > 100 µM |
| COc1ccc2[nH]c(C(=O)N3CC(CCl)c4ccc([N+](=O)[O-])cc43)cc2c1 (stereo unspecified) | > 100 µM |
| O=C1Nc2ccccc2NC1C1OC(c2ccccc2)=CC1=O (stereo unspecified) | > 100 µM |
| COC1=NN2C(OC)(c3ccccc3)c3c(-c4ccccc4)sc(-c4ccccc4)c3C2(c2ccccc2)S1 (stereo unspecified) | > 100 µM |
| O=c1[nH]c(=O)n(C2CC(O)C(CO)O2)cc1NN=NCc1ccccc1 (stereo unspecified) | > 100 µM |
| Cc1cc(-c2ccccc2)c(C)n1Cc1ccc(Cl)cc1 | > 100 µM |
| C[C@]12CCC(=O)C=C1CC[C@@H]1[C@@H]2C(=O)C[C@@]2(C)[C@H]1CC[C@]2(O)C(=O)CO | > 100 µM |
| CCC[CH2][Sn]1([CH2]CCC)[O]C(=O)C[S]1 | 7.29 µM |
| Clc1ccccc1-c1nc2ccccc2[nH]1 | > 100 µM |
| CNC1=C(C)C(=O)C(C)=C(C(C)(C)CC(=O)n2cc(F)c(=O)[nH]c2=O)C1=O | > 100 µM |
| Cn1c2ccccc2c2cc(-c3ccccc3)c3c(c21)C(=O)C=CC3=O | 42.9 µM |
| CCC(=N\NC(N)=S)/C(C)=N/O | > 100 µM |
| C=CCC1NCCC2=C1C(S(=O)(=O)c1ccc(C)cc1)c1ccccc12 (stereo unspecified) | 20.5 µM |
| COc1ccc2nc(-c3ccccc3)cc(Nc3ccc(/C(C)=N/O)cc3)c2c1 | > 100 µM |
| Cc1ccccc1NC(=S)N=Nc1c(O)[nH]c2ccccc12 | > 100 µM |
| COc1ccc(/C=C/c2nc(N3CCOCC3)c3cc(F)c(F)cc3n2)cc1OC | > 100 µM |
| O=C(c1ccc(Cl)cc1)N(C(=S)N1CCN(c2ccccn2)CC1)c1ccccc1 | > 100 µM |
| CC(C)O/C=C1\C(=O)C2(SCCS2)[C@H]2CCCC[C@@H]12 | > 100 µM |
